Reported melting point values follow for various compounds

Look over these answered cases.
CCCCn1c2c(c3cc(OC)c(OC)cc3c1=O)C(=O)c1cc3c(cc1-2)OCO3 ... 280 to 284 °C
NNC(=O)Cc1cc(C(=O)c2ccc(Br)cc2)sc1-c1ccccc1 ... 157 to 161 °C
Cc1c(NC(=O)CC(C)(C)C)c(C)c2c(c1C(=O)c1ccccc1)OC[C@@H]2c1ccc(C(C)C)cc1 ... 205 to 206 °C

Moving on to the next compound.
QUERY: GET /values?readout=melting point&item= C=CS(=O)(=O)CCN1CCC(N2N=C(c3ccc(OC)c(OC)c3)[C@H]3CC=CC[C@H]3C2=O)CC1
RESULT: 165 to 166 °C

---

Measured parameter: melting point

Look over these answered cases.
O=c1nc2n(cc1-c1ccccc1)CCC2 ... 200 to 202 °C
CCN(CC)N(C(C)=O)c1nc2cc3nc(N(C(C)=O)N4CCCCC4)sc3cc2s1 ... 280 to 282 °C

Moving on to the next molecule.
QUERY: GET /values?readout=melting point&item= COC(=O)c1cc(F)c(C(F)(F)F)cc1[N+](=O)[O-]
RESULT: 66 to 68 °C

---

Reported melting point values follow for various molecules

Look over these answered cases.
O=C(CCl)CCCc1ccc(CCCC(=O)CCl)cc1 ... 70 to 71 °C
O=C(Nc1ccc(Cl)cc1)Oc1ccc2c(c1)NCCC2 ... 118 °C
c1ccc(CN(Cc2ccccc2)c2c(-c3ccccc3)sc3ccccc23)cc1 ... 92 to 93 °C

QUERY: GET /values?readout=melting point&item= Cc1c(-c2ccncc2)[nH]c(-c2ccncc2)c1C(N)=O
RESULT: 212 to 215 °C

QUERY: Same question, O=C(C=Cc1ccccc1)Nc1ccc(S(=O)(=O)O)cc1 this time
RESULT: 235 to 237 °C

QUERY: Same question, O=Cc1ccc(N(c2ccccc2)c2ccccc2)c2ccccc12 this time
RESULT: 107 to 110 °C

QUERY: Same question, CCCCCCCCOc1ccc(C(=O)Oc2ccc3c(c2)C(C)c2cc(O)ccc2-3)cc1 (stereo unspecified) this time
RESULT: 140 to 143 °C

QUERY: Same question, CCCCNCC1CCn2c(nc3ccccc32)S1 (stereo unspecified) this time
RESULT: 122 to 124 °C

---

Measured parameter: melting point

O=C(CC(C[N+](=O)[O-])c1ccccc1)c1ccc(O)cc1 (stereo unspecified) ... 112 to 113 °C
COC(=O)c1ccc(NC(=O)c2c(-c3ccccc3)c(-c3ccc(F)cc3)n(CC[C@@H]3C[C@H](CC(=O)OC(C)(C)C)OC(C)(C)O3)c2C(C)C)cc1 ... 159 to 160 °C
CCNS(=O)(=O)c1cccc(NC(=O)c2cnn3c(C(F)(F)F)cc(-c4ccc(C(F)(F)F)cc4)nc23)c1 ... 207 °C

Moving on to the next molecule.
QUERY: GET /values?readout=melting point&item= Cc1ccc(NC(=O)OC(C)(C)C)c(C)c1
RESULT: 90 to 91 °C

---

Reported melting point values follow for various compounds

Look over these answered cases.
CCCCN(CC)CC(=O)N1c2ccccc2NC(=O)c2cncnc21 ... 151 to 152 °C
CCC1(C)OC(c2ccc(S(C)(=O)=O)cc2)=C(c2ccc(C(C)(C)C)cc2)C1=O (stereo not given) ... 45 °C
CCCc1ccc(-c2ccc(-c3ccc(CC)cc3)cc2F)s1 ... 41 °C
Cc1nnc2n1-c1ccc(C#Cc3cccs3)cc1C(c1ccccc1Cl)=NC2 ... 160 to 163 °C
O=C(C=Cc1ccc2ccccc2c1)c1cnc2sc3c(n12)CCCCC3 ... 185 to 188 °C
CCNC(=O)Cc1cccc([N+](=O)[O-])c1 ... 115 to 117 °C

QUERY: GET /values?readout=melting point&item= O=C(O)C1Cc2c([nH]c3ccccc23)CN1C(=S)SC1CCCCC1 (stereo not given)
RESULT: 150 to 151 °C

QUERY: Same question, O=CC1=CC(c2ccccc2)(c2ccccc2)CCC1=O this time
RESULT: 126 °C

QUERY: Same question, CC(C)(c1ccc(Oc2ccc([N+](=O)[O-])cc2F)cc1)c1cccc(C(C)(C)c2ccc(Oc3ccc([N+](=O)[O-])cc3F)cc2)c1 this time
RESULT: 151 to 152 °C

---

Reported melting point values follow for various compounds

Look over these answered cases.
CNCCCn1cc2c(C3C(=O)Nc4ccc(Br)cc43)ncnc2n1 (stereo unspecified) ... 240 to 243 °C
CCc1noc(-c2cc3c4cc(N(C)C)ccc4n(CCCCl)c3cn2)n1 ... 183 to 186 °C
CS(=O)(=O)Nc1ccc(C(=O)CC(=O)C2CC2)c(Cl)c1 ... 120 to 122 °C
N[C@@H]1CCCN([C@@H]2Cc3ccccc3[C@H]2Oc2cc3c(cc2Cl)NC(=O)CC3)C1 ... 184 °C
NS(=O)(=O)c1cc(C(=O)O)cc(C(F)(F)F)c1 ... 244 to 246 °C

Moving on to the next compound.
QUERY: GET /values?readout=melting point&item= COC(=O)[C@]1(O)Cc2c(OC)ccc(OC)c2C2(C1)SCCS2
RESULT: 115 to 117 °C

---

Measured parameter: melting point

NS(=O)(=O)N(c1ccccc1)c1cccc(C(c2c(O)c3c(oc2=O)CCCCCC3)C2CC2)c1 (configuration not stated) ... 90 to 95 °C

QUERY: GET /values?readout=melting point&item= CCOC(=O)C(Cc1c[nH]c2c(Cl)cccc12)(NC=O)C(=O)OCC
RESULT: 159 to 162 °C

QUERY: Same question, CNc1cc2c(cc1OC)OCO2 this time
RESULT: 66 °C

---

Reported melting point values follow for various compounds

QUERY: GET /values?readout=melting point&item= N#CCC(=O)NC1CCCCC1NC(=O)CC#N (centres undefined)
RESULT: 202 to 204 °C

---

Reported melting point values follow for various molecules

Look over these answered cases.
CCOC(=O)CCCNC(=O)Cn1c(-c2ccc(Cl)cc2)nc2cccnc21 ... 169 to 171 °C
NC1=NN(c2cccc(C(F)(F)F)c2)CC1 ... 104 to 107 °C
N#Cc1ccc2c(c1)C(=O)c1cc3c(cc1OC2)OCO3 ... 217 to 220 °C
CN(c1cccc(C(F)(F)F)c1)c1nc2c(-c3cccc(C(=O)NCCO)c3)cccc2n1C ... 156 to 158 °C

QUERY: GET /values?readout=melting point&item= COc1ccccc1-n1nnc2cc(F)c(NC(C)=O)cc21
RESULT: 174 to 175 °C

QUERY: Same question, COc1ccc(CC2CCN(C(=O)C(=O)Nc3ccc(NS(C)(=O)=O)cc3)CC2)cc1 this time
RESULT: 206 to 208 °C

QUERY: Same question, NS(=O)(=O)c1cc(S(N)(=O)=O)c(-c2ccccc2)cc1F this time
RESULT: 174 to 175 °C

---

Measured parameter: melting point

Look over these answered cases.
CC(C)[C@@H](CO)NS(=O)(=O)c1ccc(Br)cc1 ... 89 to 94 °C
Cc1ccc(OC2COc3ccc(O)cc3C2O)cn1 (configuration not stated) ... 240 to 241 °C
CCc1ccc2c(c1)C(O)(c1ccccn1)CC(C)(C)CO2 (configuration not stated) ... 84 °C
CCCOc1ccc(COCCO)cc1-c1nc2c(CCC)nn(C)c2c(=O)[nH]1 ... 101 to 102 °C
O=c1oc(OCc2ccccc2)nc2ccccc12 ... 152 to 154 °C
Cc1ccc([N+](=O)[O-])cc1Nc1nccc(-c2ccc(Cl)nc2)n1 ... 210 to 212 °C

QUERY: GET /values?readout=melting point&item= Cn1c(=O)n(O)c(=O)c2cc(F)c(F)cc21
RESULT: 239 to 241 °C

---

Reported melting point values follow for various compounds

COC(=O)C1=C(C)NC(C)=C(C(=O)OCC2CCCO2)C1c1ccc(Cl)c([N+](=O)[O-])c1 (stereo not given) ... 148 to 150 °C
CCOC(=O)C=C(N)C(C)(C)OC(N)=O ... 109 to 111 °C

QUERY: GET /values?readout=melting point&item= COc1ccc(-c2sc3c(c2CBr)c(=O)c(C(C)=O)cn3Cc2ccccc2F)cc1
RESULT: 226 to 228 °C

QUERY: Same question, Cn1c(COc2ccc(CC3SC(=O)NC3=O)cc2)cc2cccnc21 (stereo not given) this time
RESULT: 183 to 185 °C

QUERY: Same question, O=C(c1nc2ccc(O)cc2[nH]1)N1CCC(=Cc2ccc(F)cc2)CC1 this time
RESULT: 105 to 106 °C

QUERY: Same question, C/C(=C\c1ccc(OCCN(C)C)cc1)c1ccc2c(c1)SCC(C)(C)CS2 this time
RESULT: 46 to 47 °C

QUERY: Same question, O=C1c2ccc(Cl)cc2C(=O)N1CCN1CCC(c2noc3cc(F)ccc23)CC1 this time
RESULT: 170 to 171 °C

QUERY: Same question, O=C1NC(=O)C(=Cc2cccs2)N1 this time
RESULT: 253 to 255 °C

QUERY: Same question, CCOC(=O)Cn1c2c([nH]c(=O)c1=O)CCC1=C2C=C([N+](=O)[O-])CC1 this time
RESULT: 217 to 219 °C
